Target: human SIRT5 (Homo sapiens)
Sequence (Q9NXA8 37-310): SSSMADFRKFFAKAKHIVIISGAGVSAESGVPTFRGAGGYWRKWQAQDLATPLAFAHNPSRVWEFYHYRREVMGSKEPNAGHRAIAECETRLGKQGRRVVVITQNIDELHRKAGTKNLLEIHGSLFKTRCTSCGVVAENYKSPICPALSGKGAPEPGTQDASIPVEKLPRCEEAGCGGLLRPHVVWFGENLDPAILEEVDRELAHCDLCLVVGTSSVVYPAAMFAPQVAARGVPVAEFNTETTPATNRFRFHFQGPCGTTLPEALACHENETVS
Test: SIRT5 rate measurement, fluorogenic p53-382 peptide deacetylation
Assay type: biochemical
Set-up: His6 (histidine tag, 2.5 kDa) (N); made in house; host or cells: E. coli
Conditions: 200 μM test compounds; 500 μM NAD+, 100 μM p53-382 peptide
Given measured SIRT5 Ratio of Control Rates Mean ± SE Compounds at 200 μM, output T if it is greater than or equal to 3 and F if not.

Study these solved cases before continuing.
CSc1ccc(/C=C/c2cc(O)cc(O)c2)cc1 ... T
Cc1ccc(NC(=O)c2cccc(N(C)C)c2)cc1NC(=O)c1ccc(O)cc1 ... F
CCSc1ccc(/C=C/c2cc(O)cc(O)c2)cc1 ... F

Is the recorded value of SIRT5 Ratio of Control Rates Mean ± SE Compounds at 200 μM equal to or greater than 3 for this compound? "Oc1cc(O)cc(/C=C/c2ccncc2)c1"
F

Is the recorded value of SIRT5 Ratio of Control Rates Mean ± SE Compounds at 200 μM equal to or greater than 3 for this compound? Oc1cc(O)cc(/C=C/c2ccc(O)c(O)c2)c1 [Piceatannol, 3,5,3′,4′-Tetrahydroxy-trans-stilbene]
T

Is the recorded value of SIRT5 Ratio of Control Rates Mean ± SE Compounds at 200 μM equal to or greater than 3 for this compound? Oc1cc(O)cc(/C=C/c2ccc(Cl)cc2)c1 [BML-217, 3,5-Dihydroxy-4′-chloro-trans-stilbene]
T

Is the recorded value of SIRT5 Ratio of Control Rates Mean ± SE Compounds at 200 μM equal to or greater than 3 for this compound? CC(=O)Oc1ccc(/C=C/c2cc(O)cc(O)c2)cc1 [BML-221, 3,5-Dihydroxy-4′-acetoxy-trans-stilbene]
F

Is the recorded value of SIRT5 Ratio of Control Rates Mean ± SE Compounds at 200 μM equal to or greater than 3 for this compound? O=c1c(O)c(-c2ccc(O)c(O)c2)oc2cc(O)ccc12 [Fisetin, 3,7,3′,4′-Tetrahydroxyflavone]
F

Is the recorded value of SIRT5 Ratio of Control Rates Mean ± SE Compounds at 200 μM equal to or greater than 3 for this compound? Oc1cc(O)cc(/C=C/c2ccccc2)c1 [Pinosylvin, 3,5-Dihydroxy-trans-stilbene]
F

----------
Molecular target: human SIRT1 (Homo sapiens, UniProt Q96EB6)
Construct: made in house; host or cells: E. coli
Sequence (Q96EB6 1-747): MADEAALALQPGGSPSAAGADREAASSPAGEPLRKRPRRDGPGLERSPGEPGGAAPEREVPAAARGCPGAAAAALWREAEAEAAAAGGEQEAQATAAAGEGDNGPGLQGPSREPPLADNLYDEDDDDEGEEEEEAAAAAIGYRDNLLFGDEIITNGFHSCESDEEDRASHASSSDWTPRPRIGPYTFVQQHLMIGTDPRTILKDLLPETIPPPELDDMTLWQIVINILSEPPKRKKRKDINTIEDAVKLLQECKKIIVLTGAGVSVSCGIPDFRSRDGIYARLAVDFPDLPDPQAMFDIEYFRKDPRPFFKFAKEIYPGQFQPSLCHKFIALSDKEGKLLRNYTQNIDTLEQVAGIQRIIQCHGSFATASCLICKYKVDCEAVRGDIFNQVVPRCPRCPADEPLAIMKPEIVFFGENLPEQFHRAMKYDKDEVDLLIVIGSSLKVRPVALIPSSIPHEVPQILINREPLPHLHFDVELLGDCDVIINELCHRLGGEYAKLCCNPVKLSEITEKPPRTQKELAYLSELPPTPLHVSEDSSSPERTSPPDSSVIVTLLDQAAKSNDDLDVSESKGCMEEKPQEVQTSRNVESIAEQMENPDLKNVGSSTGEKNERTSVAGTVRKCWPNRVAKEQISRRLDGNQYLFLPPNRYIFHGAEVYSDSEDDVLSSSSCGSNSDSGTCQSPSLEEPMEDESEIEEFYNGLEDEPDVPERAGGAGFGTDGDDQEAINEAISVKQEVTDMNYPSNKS
Assay: SIRT1 rate measurement, fluorogenic p53-382 peptide deacetylation
Assay type: biochemical
Conditions: 100 μM test compounds; 25 μM NAD+, 25 μM p53-382 peptide
Collected SIRT1 Ratio to Control Rates Mean ± SE Compounds at 100 μM values appear next to each entry.
Enter a number only.

The examples below pair each entry with its known result.
COC(=O)c1ccc(/C=C/c2cc(O)cc(O)c2)cc1 ... 2.74
Cc1ccc(/C=C/c2cc(O)cc(O)c2)cc1 [BML-228, 3,5-Dihydroxy-4′-methyl-trans-stilbene] ... 7.72
Oc1ccc(/C=C/c2ccccc2)cc1O [3,4-Dihydroxy-trans-stilbene] ... 1.64
O=C(O)c1ccc(/C=C/c2cc(O)cc(O)c2)cc1 [BML-238, 3,5-Dihydroxy-4′-carboxy-trans-stilbene] ... 1.36

Could you now look at the following compound, please?
The value of SIRT1 Ratio to Control Rates Mean ± SE Compounds at 100 μM measured for the compound "Cc1ccc(NC(=O)c2cccc(N(C)C)c2)cc1NC(=O)c1ccc(O)cc1" turned out to be 3.5

meta.source: patent US20120172340A1
